method-summary: Brain and plasma concentrations in an in vivo cassette mouse model
Design: species or system male CD-1 mice
details: male, CD-1, brain, PO cassette, 2.5 mg/kg per compound, read-out: (d) Brain conc. at 3 hours
measured-property: concentration at 3 h (nM)

C[C@H](c1ccccc1)N(C)c1cnc2cc(-c3cn[nH]c3)ccc2n1 [Example 13]; 2960
C[C@@H](Nc1cnc2cc(-c3cn[nH]c3)ccc2n1)c1cccc(Cl)c1 [Example 15]; 2430
CN(Cc1ccccc1)c1nc2ccc(-c3cn[nH]c3)cc2[n+]([O-])n1 [Example 10]; 750
COc1cccc([C@@H](C)N(C)c2cnc3cc(-c4cn[nH]c4)ccc3n2)c1 [Example 14]; 2650
Cc1cccc([C@@H](C)Nc2cnc3cc(-c4cn[nH]c4)ccc3n2)c1 [Example 16]; 3250

(P) Clc1cccc(CNc2cnc3cc(-c4cn[nH]c4)ccc3n2)c1 [Example 2]
(Q) CN(Cc1ccccc1)c1nnc2cc(-c3cn[nH]c3)ccc2n1 [Example 11]
(R) [O-][n+]1nc(NCc2ccccc2)nc2ccc(-c3cn[nH]c3)cc21 [Example 17]
(S) Fc1ccc(CNc2cnc3cc(-c4cn[nH]c4)ccc3n2)cc1 [Example 3]
[Q] Would you mind ranking these compounds by ascending concentration at 3 h? Hello, could you send the labels back in the order asked? Thank you.
[A] R, S, P, Q
(R: 210 nM, S: 590 nM, P: 1500 nM, Q: 2620 nM)

----------
method-summary: Brain and plasma concentrations in an in vivo cassette mouse model
Set-up: species or system male CD-1 mice
details: male, CD-1, plasma, PO cassette, 2.5 mg/kg per compound, read-out: (d) Plasma conc. at 3 hours
measured-property: concentration at 3 h (nM)

Look over these answered cases.
Fc1ccc(CNc2cnc3cc(-c4cn[nH]c4)ccc3n2)cc1F; 760
CN(Cc1ccccc1)c1cnc2cc(-c3cn[nH]c3)ccc2n1; 970
CN(Cc1ccccc1)c1nnc2cc(-c3cn[nH]c3)ccc2n1; 350
CN(Cc1ccccc1)c1nc2ccc(-c3cn[nH]c3)cc2[n+]([O-])n1; 180
Clc1cccc(CNc2cnc3cc(-c4cn[nH]c4)ccc3n2)c1; 1230

(1) COc1cccc(CNc2cnc3cc(-c4cn[nH]c4)ccc3n2)c1
(2) Cc1cccc([C@@H](C)Nc2cnc3cc(-c4cn[nH]c4)ccc3n2)c1
(3) COc1cccc([C@@H](C)N(C)c2cnc3cc(-c4cn[nH]c4)ccc3n2)c1
(4) COc1cccc([C@@H](C)Nc2cnc3cc(-c4cn[nH]c4)ccc3n2)c1
[Q] # sort list by recorded concentration at 3 h, greatest to least Hello, could you send the labels back in the order asked? Thank you.
[A] 4, 2, 1, 3
(4: 5050 nM, 2: 3340 nM, 1: 1730 nM, 3: 790 nM)

----------
method-summary: Brain and plasma concentrations in an in vivo cassette mouse model
Parameters: species or system male CD-1 mice
details: male, CD-1, brain, PO cassette, 2.5 mg/kg per compound, read-out: (d) Brain: Plasma ratio at 3 hours
Structures can show the parent of a compound that is named as a salt.
measured-property: Kp at 3 h

CN(Cc1ccccc1)c1nc2ccc(-c3cn[nH]c3)cc2[n+]([O-])n1 [Example 10]; 4.2

(A) C[C@@H](Nc1nc2ccc(-c3cn[nH]c3)cc2[n+]([O-])n1)c1ccccc1 [Example 18, hydrochloride]
(B) Cc1cccc([C@@H](C)Nc2cnc3cc(-c4cn[nH]c4)ccc3n2)c1 [Example 16]
(C) CN(Cc1cccc(F)c1)c1cnc2cc(-c3cn[nH]c3)ccc2n1 [Example 7]
(D) COc1cccc(CNc2cnc3cc(-c4cn[nH]c4)ccc3n2)c1 [Example 4]
[Q] # sort list by recorded Kp at 3 h, greatest to least Hello, could you send the labels back in the order asked? Thank you.
[A] C, A, B, D
(C: 3.5, A: 1.8, B: 1, D: 0.6)

(P) Fc1ccc(CNc2cnc3cc(-c4cn[nH]c4)ccc3n2)cc1 [Example 3]
(Q) CCN(Cc1ccccc1)c1cnc2cc(-c3cn[nH]c3)ccc2n1 [Example 6]
[Q] Higher Kp at 3 h: P or Q ? Pick one and reply with its label.
[A] Q
(Q: 4.3, P: 1.1)

(A) C[C@H](c1ccccc1)N(C)c1cnc2cc(-c3cn[nH]c3)ccc2n1 [Example 13]
(B) [O-][n+]1nc(NCc2ccccc2)nc2ccc(-c3cn[nH]c3)cc21 [Example 17]
[Q] Decide: A or B , by lowest recorded Kp at 3 h. Pick one and reply with its label.
[A] B
(B: 1.3, A: 4.2)

----------
method-summary: Brain and plasma concentrations in an in vivo cassette mouse model
Set-up: species or system male CD-1 mice
details: male, CD-1, brain, PO cassette, 2.5 mg/kg per compound, read-out: (d) Brain: Plasma ratio at 3 hours
Counter-ions that a name gives are not always drawn.
measured-property: Kp at 3 h

Look over these answered cases.
C[C@@H](Nc1cnc2cc(-c3cn[nH]c3)ccc2n1)c1ccccc1 [Example 9]; 1.4
Fc1ccc(CNc2cnc3cc(-c4cn[nH]c4)ccc3n2)cc1F [Example 8]; 1.1
C[C@@H](Nc1cnc2cc(-c3cn[nH]c3)ccc2n1)c1cccc(Cl)c1 [Example 15]; 2
CN(Cc1ccc(F)cc1)c1cnc2cc(-c3cn[nH]c3)ccc2n1 [Example 5]; 3.3
COc1cccc([C@@H](C)N(C)c2cnc3cc(-c4cn[nH]c4)ccc3n2)c1 [Example 14]; 3.3
C[C@@H](Nc1nnc2cc(-c3cn[nH]c3)ccc2n1)c1ccccc1 [Example 19, hydrochloride]; 2.9

(1) CN(Cc1ccccc1)c1cnc2cc(-c3cn[nH]c3)ccc2n1 [Example 1]
(2) COc1cccc([C@@H](C)Nc2cnc3cc(-c4cn[nH]c4)ccc3n2)c1 [Example 12]
(3) CN(Cc1ccccc1)c1nnc2cc(-c3cn[nH]c3)ccc2n1 [Example 11]
(4) Clc1cccc(CNc2cnc3cc(-c4cn[nH]c4)ccc3n2)c1 [Example 2]
[Q] # sort list by recorded Kp at 3 h, greatest to least Hello, could you send the labels back in the order asked? Thank you.
[A] 3, 1, 4, 2

----------
assayed-target: p70S6K (h) (Homo sapiens)
Sequence (P23443 whole entry): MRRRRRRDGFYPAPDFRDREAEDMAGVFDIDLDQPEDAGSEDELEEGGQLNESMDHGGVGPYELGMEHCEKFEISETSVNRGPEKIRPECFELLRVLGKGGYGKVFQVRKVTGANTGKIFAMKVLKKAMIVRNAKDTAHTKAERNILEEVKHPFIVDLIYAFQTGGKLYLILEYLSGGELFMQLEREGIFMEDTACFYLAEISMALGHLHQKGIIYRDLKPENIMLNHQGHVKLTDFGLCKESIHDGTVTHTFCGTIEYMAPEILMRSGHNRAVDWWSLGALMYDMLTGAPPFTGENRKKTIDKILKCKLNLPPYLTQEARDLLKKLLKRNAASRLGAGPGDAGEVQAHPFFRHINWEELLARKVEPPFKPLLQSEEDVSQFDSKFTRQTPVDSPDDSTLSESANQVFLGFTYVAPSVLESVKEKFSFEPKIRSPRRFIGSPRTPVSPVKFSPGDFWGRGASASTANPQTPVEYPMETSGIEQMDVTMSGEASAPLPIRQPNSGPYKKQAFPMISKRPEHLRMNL
method-summary: Determination of p70S6 inhibitory activity (radiometric kinase assay)
Format: biochemical
details: read-out: (a) p70S6K1 IC50
Structures can show the parent of a compound that is named as a salt.
measured-property: IC50 (nM)

(P) C[C@@H](Nc1nc2ccc(-c3cn[nH]c3)cc2[n+]([O-])n1)c1ccccc1 [Example 18, hydrochloride]
(Q) CN(Cc1ccccc1)c1nnc2cc(-c3cn[nH]c3)ccc2n1
[Q] Higher IC50: P or Q ? Pick one and reply with its label.
[A] Q

----------
method-summary: Brain and plasma concentrations in an in vivo cassette mouse model
Parameters: species or system male CD-1 mice
details: male, CD-1, brain, PO cassette, 2.5 mg/kg per compound, read-out: (d) Brain conc. at 3 hours
Counter-ions that a name gives are not always drawn.
measured-property: concentration at 3 h (nM)

Look over these answered cases.
CN(Cc1ccccc1)c1cnc2cc(-c3cn[nH]c3)ccc2n1; 3650
CN(Cc1cccc(F)c1)c1cnc2cc(-c3cn[nH]c3)ccc2n1; 2880
C[C@@H](Nc1nc2ccc(-c3cn[nH]c3)cc2[n+]([O-])n1)c1ccccc1 [Example 18, hydrochloride]; 990

(I) C[C@@H](Nc1nnc2cc(-c3cn[nH]c3)ccc2n1)c1ccccc1 [Example 19, hydrochloride]
(II) Fc1ccc(CNc2cnc3cc(-c4cn[nH]c4)ccc3n2)cc1F
[Q] Higher concentration at 3 h: I or II ? Pick one and reply with its label.
[A] I
(I: 2330 nM, II: 820 nM)

(P) COc1cccc([C@@H](C)Nc2cnc3cc(-c4cn[nH]c4)ccc3n2)c1
(Q) COc1cccc(CNc2cnc3cc(-c4cn[nH]c4)ccc3n2)c1
[Q] Decide: P or Q , by lowest recorded concentration at 3 h. Pick one and reply with its label.
[A] Q

----------
pIC50: −log10 of the molar value. Structures can show the parent of a compound that is named as a salt.
Let's go through some recorded pIC50 values for p70S6K (h) (Homo sapiens, UniProt P23443) together.
measured-property: pIC50

Look over these answered cases.
CN(Cc1cccc(F)c1)c1cnc2cc(-c3cn[nH]c3)ccc2n1; 8.05
C[C@@H](Nc1nnc2cc(-c3cn[nH]c3)ccc2n1)c1ccccc1 [Example 19, hydrochloride]; 7.66

(I) COc1cccc([C@@H](C)Nc2cnc3cc(-c4cn[nH]c4)ccc3n2)c1
(II) CN(Cc1ccccc1)c1cnc2cc(-c3cn[nH]c3)ccc2n1
(III) [O-][n+]1nc(NCc2ccccc2)nc2ccc(-c3cn[nH]c3)cc21
[Q] Would you mind ranking these molecules by ascending pIC50? Hello, could you send the labels back in the order asked? Thank you.
[A] III, I, II
(III: 7.49, I: 8.15, II: 8.40)

----------
method-summary: Brain and plasma concentrations in an in vivo cassette mouse model
Parameters: species or system male CD-1 mice
details: male, CD-1, plasma, PO cassette, 2.5 mg/kg per compound, read-out: (d) Plasma conc. at 3 hours
Structures can show the parent of a compound that is named as a salt.
measured-property: concentration at 3 h (nM)

[O-][n+]1nc(NCc2ccccc2)nc2ccc(-c3cn[nH]c3)cc21 [Example 17]; 160

(P) C[C@@H](Nc1cnc2cc(-c3cn[nH]c3)ccc2n1)c1ccccc1 [Example 9]
(Q) C[C@H](c1ccccc1)N(C)c1cnc2cc(-c3cn[nH]c3)ccc2n1 [Example 13]
[Q] Higher concentration at 3 h: P or Q ? Pick one and reply with its label.
[A] P
(P: 1510 nM, Q: 700 nM)

(I) C[C@@H](Nc1nnc2cc(-c3cn[nH]c3)ccc2n1)c1ccccc1 [Example 19, hydrochloride]
(II) C[C@@H](Nc1nc2ccc(-c3cn[nH]c3)cc2[n+]([O-])n1)c1ccccc1 [Example 18, hydrochloride]
[Q] Decide: I or II , by lowest recorded concentration at 3 h. Pick one and reply with its label.
[A] II

(1) CN(Cc1ccc(F)cc1)c1cnc2cc(-c3cn[nH]c3)ccc2n1 [Example 5]
(2) Fc1ccc(CNc2cnc3cc(-c4cn[nH]c4)ccc3n2)cc1 [Example 3]
[Q] Higher concentration at 3 h: 1 or 2 ? Pick one and reply with its label.
[A] 1
(1: 760 nM, 2: 520 nM)

(A) CN(Cc1cccc(F)c1)c1cnc2cc(-c3cn[nH]c3)ccc2n1 [Example 7]
(B) CCN(Cc1ccccc1)c1cnc2cc(-c3cn[nH]c3)ccc2n1 [Example 6]
[Q] Decide: A or B , by lowest recorded concentration at 3 h. Pick one and reply with its label.
[A] B
(B: 550 nM, A: 830 nM)

Data origin: patent US10144726B2
